# System: Plasmodium berghei
# assay_details: Screen against P. berghei liver stage (PbLuc), transformed with Luciferase, at 10uM
# Format: functional, HepG2
# particulars: tested at 10 uM
About 8,600 (12%) of roughly 69,000 compounds showed an effect of 50% or more. The sample as a whole holds a higher share of strong results than the screen did.
measure: INHIBITION (%)

1) CCNc1nc2cn(-c3ccc(Cl)cc3)c(=O)c-2c[nH]1; -64.5
2) CCn1cc(CNC(=O)CCn2ncc3c(Cl)cccc32)cn1; 54.9
3) COc1cccc([C@H]2CN(C(=O)c3cc(C)on3)C[C@@H]2N)c1; 23.5
4) Cc1ccc(S(=O)(=O)NCC2CNCCOC2)cc1Cl (stereo not given); -95.7
5) Cn1ccnc(Sc2cccc(C#N)c2)c1=O; 15

Origin of values: ChEMBL document CHEMBL4513216
